melting point values, listed per item

Use these answered entries as a reference point.
molecule | reportedEndpoint | valueMeasured
COc1ccc(-c2cccc3c2COC3=O)c2c1OCCO2 | melting point | 158 to 160 °C
COc1ccc(C2(C#N)CCC(=CC(=O)O)CC2)c2c1OCCO2 (centres unmarked) | melting point | 203 to 204 °C
CCOC(=O)C=C1CCC(C#N)(c2ccc(OC)c3c2OCCO3)CC1 (centres unmarked) | melting point | 110 to 112 °C
COC=C1CCC(C#N)(c2ccc(OC)c3c2OCCO3)CC1 (centres unmarked) | melting point | 112 to 113 °C

Could you now consider this next molecule?
Query string: Requested field: melting point. Item: COc1ccc(-c2ccc3c(c2)C(=O)NC3=O)c2c1OCCO2
Result string: 285 to 287 °C
